- APPLIED CONDITIONS: in 1,2-dichloroethane, 278.15 K
ENDPOINT LABEL: solubility (mole fraction)
Keep it simple and answer with nothing but the number.

Field solubility (mole fraction) (entry O=C1CCCC(=O)O1 ) reads 0.448

====

- APPLIED CONDITIONS: in dichloromethane, 303.15 K
ENDPOINT LABEL: solubility (mole fraction)
Keep the answer to the number alone.

According to the records, this compound O=C1CCCC(=O)O1 displays solubility (mole fraction) of 0.78

====

- APPLIED CONDITIONS: in n-butyl acetate, 278.15 K
ENDPOINT LABEL: solubility (mole fraction)

Entry under test: O=C1CCCC(=O)O1 . Its solubility (mole fraction) was 0.12

====

- APPLIED CONDITIONS: in methyl acetate, 313.15 K
ENDPOINT LABEL: solubility (mole fraction)

Just so you know, measured solubility (mole fraction) for O=C1CCCC(=O)O1 came out at 0.874

====

- APPLIED CONDITIONS: in DMAc, 303.15 K
ENDPOINT LABEL: solubility (mole fraction)
// keep it numeric: no unit symbol after the value

Note to self: solubility (mole fraction) recorded for O=C1CCCC(=O)O1 was 0.905

====

- APPLIED CONDITIONS: in DMF, 283.15 K
ENDPOINT LABEL: solubility (mole fraction)

# solubility (mole fraction) (compound: O=C1CCCC(=O)O1 ) is 0.594

====

- APPLIED CONDITIONS: in DMF, 308.15 K
ENDPOINT LABEL: solubility (mole fraction)
Output spec: single numeric token, no unit.

Lab note: measured solubility (mole fraction) of O=C1CCCC(=O)O1 was 0.822

====

- APPLIED CONDITIONS: in 1,2-dichloroethane, 288.15 K
ENDPOINT LABEL: solubility (mole fraction)
Keep the answer to the number alone.

# solubility (mole fraction) of O=C1CCCC(=O)O1 = 0.631

====

- APPLIED CONDITIONS: in ethyl acetate, 278.15 K
ENDPOINT LABEL: solubility (mole fraction)
Lab note: jot the number down without any unit.

// solubility (mole fraction) lookup, compound = O=C1CCCC(=O)O1 , result: 0.107

====

- APPLIED CONDITIONS: in n-propyl acetate, 278.15 K
ENDPOINT LABEL: solubility (mole fraction)
Answer using only a numeral; do not append any unit.

The recorded solubility (mole fraction) for entry O=C1CCCC(=O)O1 equals 0.234

====

- APPLIED CONDITIONS: in DMF, 313.15 K
ENDPOINT LABEL: solubility (mole fraction)

Entry O=C1CCCC(=O)O1 ; solubility (mole fraction) = 0.87

====

- APPLIED CONDITIONS: in DMAc, 283.15 K
ENDPOINT LABEL: solubility (mole fraction)
Would you mind answering with just the numeric figure?

The recorded solubility (mole fraction) for O=C1CCCC(=O)O1 is 0.789

====

- APPLIED CONDITIONS: in DMF, 288.15 K
ENDPOINT LABEL: solubility (mole fraction)

Input O=C1CCCC(=O)O1 . Output solubility (mole fraction): 0.663

====

- APPLIED CONDITIONS: in n-butyl acetate, 308.15 K
ENDPOINT LABEL: solubility (mole fraction)
# answer = number (no unit)

solubility (mole fraction) measured on O=C1CCCC(=O)O1 = 0.582

====

- APPLIED CONDITIONS: in DMF, 303.15 K
ENDPOINT LABEL: solubility (mole fraction)
Output: the number by itself.

Looking up O=C1CCCC(=O)O1 , I see its solubility (mole fraction) listed as 0.795

====

- APPLIED CONDITIONS: in n-propyl acetate, 308.15 K
ENDPOINT LABEL: solubility (mole fraction)
// no unit, no text: just the number

Data point: O=C1CCCC(=O)O1 ; solubility (mole fraction) = 0.817

====

- APPLIED CONDITIONS: in DMAc, 308.15 K
ENDPOINT LABEL: solubility (mole fraction)
// return a plain number; no unit text

Measured solubility (mole fraction) of O=C1CCCC(=O)O1 : 0.923

====

- APPLIED CONDITIONS: in ethyl acetate, 313.15 K
ENDPOINT LABEL: solubility (mole fraction)
Lab note: jot down the number only; don't add units.

The value of solubility (mole fraction) measured for the compound O=C1CCCC(=O)O1 turned out to be 0.75

====

- APPLIED CONDITIONS: in methyl acetate, 303.15 K
ENDPOINT LABEL: solubility (mole fraction)

Documented solubility (mole fraction) of O=C1CCCC(=O)O1 : 0.7

====

- APPLIED CONDITIONS: in n-propyl acetate, 303.15 K
ENDPOINT LABEL: solubility (mole fraction)
Reply with just the number.

Sure, the documented solubility (mole fraction) for O=C1CCCC(=O)O1 is 0.712

====

- APPLIED CONDITIONS: in acetone, 308.15 K
ENDPOINT LABEL: solubility (mole fraction)
# output: bare number, no unit

# solubility (mole fraction) (molecule: O=C1CCCC(=O)O1 ) is 0.884

====

- APPLIED CONDITIONS: in acetonitrile, 308.15 K
ENDPOINT LABEL: solubility (mole fraction)
// return a plain number; no unit text

For O=C1CCCC(=O)O1 the compound record lists solubility (mole fraction) as 0.879

====

- APPLIED CONDITIONS: in acetonitrile, 298.15 K
ENDPOINT LABEL: solubility (mole fraction)
# print the numeric value only

Noted for O=C1CCCC(=O)O1 : its solubility (mole fraction) reads 0.809

====

- APPLIED CONDITIONS: in ethyl acetate, 293.15 K
ENDPOINT LABEL: solubility (mole fraction)
Please state the value as a number alone, without comment.

Briefly, solubility (mole fraction) measured for O=C1CCCC(=O)O1 : 0.273

====

- APPLIED CONDITIONS: in DMF, 293.15 K
ENDPOINT LABEL: solubility (mole fraction)
No unit in the answer, please; the number alone is enough.

Form field solubility (mole fraction), entry O=C1CCCC(=O)O1 : 0.705

====

- APPLIED CONDITIONS: in acetone, 303.15 K
ENDPOINT LABEL: solubility (mole fraction)
Form rule: numeric answer, no unit written next to it.

Looking up O=C1CCCC(=O)O1 , I found its solubility (mole fraction) recorded as 0.815

====

- APPLIED CONDITIONS: in dichloromethane, 308.15 K
ENDPOINT LABEL: solubility (mole fraction)
Lab note: jot the number down without any unit.

Short answer for O=C1CCCC(=O)O1 : solubility (mole fraction) was 0.824

====

- APPLIED CONDITIONS: in 1,2-dichloroethane, 313.15 K
ENDPOINT LABEL: solubility (mole fraction)
The response must contain the number and no unit.

According to the records, this compound O=C1CCCC(=O)O1 displays solubility (mole fraction) of 0.922

====

- APPLIED CONDITIONS: in DMF, 278.15 K
ENDPOINT LABEL: solubility (mole fraction)
Simply state the number, no unit and no words.

Form field solubility (mole fraction), entry O=C1CCCC(=O)O1 : 0.549

====

- APPLIED CONDITIONS: in acetonitrile, 283.15 K
ENDPOINT LABEL: solubility (mole fraction)
Could you keep your reply to the number by itself?

Consider O=C1CCCC(=O)O1 . Its measured solubility (mole fraction) is 0.648

====

- APPLIED CONDITIONS: in DMAc, 298.15 K
ENDPOINT LABEL: solubility (mole fraction)
Lab note: record the figure alone, no unit after it.

Field solubility (mole fraction) (entry O=C1CCCC(=O)O1 ) reads 0.877

====

- APPLIED CONDITIONS: in ethyl acetate, 308.15 K
ENDPOINT LABEL: solubility (mole fraction)
// keep it numeric: no unit symbol after the value

According to the records, this compound O=C1CCCC(=O)O1 displays solubility (mole fraction) of 0.618

====

- APPLIED CONDITIONS: in n-butyl acetate, 283.15 K
ENDPOINT LABEL: solubility (mole fraction)
Form rule: numeric answer, no unit written next to it.

Reported solubility (mole fraction) for O=C1CCCC(=O)O1 was 0.145

====

- APPLIED CONDITIONS: in ethyl acetate, 303.15 K
ENDPOINT LABEL: solubility (mole fraction)
// response body must contain only the number

Recorded solubility (mole fraction) (compound O=C1CCCC(=O)O1 ): 0.506

====

- APPLIED CONDITIONS: in n-butyl acetate, 298.15 K
ENDPOINT LABEL: solubility (mole fraction)
// no unit string in output, number only

Input O=C1CCCC(=O)O1 . Output solubility (mole fraction): 0.322

====

- APPLIED CONDITIONS: in methyl acetate, 298.15 K
ENDPOINT LABEL: solubility (mole fraction)
Reply with just the number.

// recorded solubility (mole fraction) for O=C1CCCC(=O)O1 : 0.646
